Assay: Standard PK in CD-1 mice (m-PK)
Type: in vivo, mouse
Conditions: male, CD-1, whole blood; mouse, 1 mg/kg IV; read-out: m-PK Cl
Description: Standard PK. Male catheterized CD-1 mice were treated with Compound 6 prepared in vehicle (5% DMSO+10% Solutol+85% PBS, PH=7.4) at doses of 1 mg/kg for IV (5 mL/kg) or 5 mg/kg for PO (10 mL/kg). Blood samples (20 VL) were collected at 0.083, 0.25, 0.5, 1, 2, 4, 8, and 24 hrs post dose and mixed with 60 VL 0.1 M sodium citrate. Upon extraction by using acetonitrile, blood concentrations of Compound 6 were quantitated by LC-MS/MS. PK parameters were calculated by using WinNonlin® 6.4.
Each entry below carries its recorded clearance.
Please don't drop the unit; write it after the number.

Compound | Measured
COc1cc(C(=O)N2CCC3(CC2)Cc2ccc(C(C)C)cc2C(=O)O3)nc2c(OC)cccc12 | 46.5 mL/min/kg

Pending compound:
// query Query (compound): COc1cc(C(=O)N2CCC3(CC2)Cc2ccc(Nc4ccnn4C)cc2C(=O)O3)nc2c(OC)cccc12 ; field requested: clearance
// result 15.2 mL/min/kg
